assay: Volume of distribution in rat at 1 mg/kg, iv and 1 mg/kg, po; type: ADME, organism-based; conditions: in vivo
MEASURED_PARAMETER: Vd (L/kg)
# output: bare number, implied unit L/kg

## Task Would you kindly share the measured Vd for CNC(=O)c1cc(OC)c(O[C@@H](C)C(=O)N2CCN(C(=O)c3ccccc3)C[C@H]2C)cn1 (mixture of isomers) ?
## Result 1.5

## Task Would you kindly share the measured Vd for CNC(=O)c1ccc(O[C@@H](C)C(=O)N2CCN(C(=O)c3ccccc3)C[C@H]2C)c(OC)c1 ?
## Result 4.3

###

assay: in vitro; conditions: rat, liver microsomes
MEASURED_PARAMETER: half-life

## Task Would you kindly share the measured half-life for CNC(=O)c1ccc(O[C@@H](C)C(=O)N2CCN(C(=O)c3ccccc3)C[C@H]2C)c(OC)c1 ?
## Result > 2 h

## Task Would you kindly share the measured half-life for CNC(=O)c1cc(OC)c(O[C@@H](C)C(=O)N2CCN(C(=O)c3ccccc3)C[C@H]2C)cn1 (mixture of isomers) ?
## Result > 2 h
